- Assay Name: Plasma and brain concentration after oral administration to ICR mice (HPLC-MS/MS)
- Assay type: in vivo
- Measurement Parameters: ICR, mouse, plasma, po, 10 mg/kg, plasma, read-out: 0.5~24 hr AUClast
Assay Endpoint: AUC(0-t)

COCc1cc(NC2CCCC2)c2[nH]c(-c3ccccc3)cc2c1	4940 ng·h/mL

###

- System: H9C2 cells
- Assay Name: Cell death protective effect in cardiac myocytes against Erastin, glutamate and RSL3 (LDH)
- Type: cell-based, white mouse
- Measurement Parameters: H9C2, RSL3, 0.5 μM; compound 0.1 μM; 24 h
Below: a set of entries, each annotated with reported inhibition (%).
Assay Endpoint: inhibition (%)

CCOC(=O)c1ccc(NC2CCCCC2)c(N)c1 [Ferrostatin-1, reference compound]	83
CCOCc1cc(NC2CCOCC2)c2c(c1)c(COC)c(-c1ccccc1)n2C [Example 29]	10
COCc1cc(NC2CC[S+]([O-])CC2)c2[nH]c(-c3ccccc3)cc2c1 (centres unmarked) [Example 14]	100
COCCc1cc(NC2CCOCC2)c2[nH]c(-c3ccccc3)cc2c1 [Example 41]	100
COCc1cc(NC2CCCC2)c2[nH]c(-c3ccccc3)cc2c1 [Example 2]	100
COCc1cc(NC2CCOCC2)c2[nH]c(-c3ccccc3)cc2c1 [Example 1]	100
CCOCc1cc(NC2CCOCC2)c2[nH]c(-c3ccccc3)c(-c3ncc[nH]3)c2c1 [Example 46]	15
CCOCc1cc(NC2CCCC2)c2[nH]c(-c3ccccc3)cc2c1 [Example 19]	100

###

- System: NRK-49F cells
- Assay Name: Cell death protective effect in renal fibroblasts against Erastin, glutamate and RSL3 (LDH)
- Assay type: cell-based, rat
- Measurement Parameters: Erastin, 3 μM, compound 1.0 μM, 24 h
Assay Endpoint: inhibition (%)

CCOCc1cc(NC2CCOCC2)c2c(c1)c(COC)c(-c1ccccc1)n2C [Example 29]	93%
COCc1cc(NC2CC[S+]([O-])CC2)c2[nH]c(-c3ccccc3)cc2c1 (centres unmarked) [Example 14]	93%
CCOCc1cc(NC2CCCC2)c2[nH]c(-c3ccccc3)cc2c1 [Example 19]	95%
CCOC(=O)c1ccc(NC2CCCCC2)c(N)c1 [Ferrostatin-1, reference compound]	97%
CCOCc1cc(NC2CCOCC2)c2[nH]c(-c3ccccc3)c(-c3ncc[nH]3)c2c1 [Example 46]	64%
COCCc1cc(NC2CCOCC2)c2[nH]c(-c3ccccc3)cc2c1 [Example 41]	94%
COCc1cc(NC2CCOCC2)c2[nH]c(-c3ccccc3)cc2c1 [Example 1]	95%
COCc1cc(NC2CCCC2)c2[nH]c(-c3ccccc3)cc2c1 [Example 2]	94%

###

Entries and their measured inhibition (%) follow.
- Tested on: MLE-12 cells
- Assay Name: Cell death protective effect in lung epithelial cells against RSL3 (LDH)
- Type: cell-based, rat
- Measurement Parameters: MLE-12, RSL3, 1 μM; compound 0.03 μM; 24 h
Assay Endpoint: inhibition (%)

CCOCc1cc(NC2CCOCC2)c2[nH]c(-c3ccccc3)c(-c3ncc[nH]3)c2c1	0
CCOCc1cc(NC2CCOCC2)c2c(c1)c(COC)c(-c1ccccc1)n2C	0
CCOCc1cc(NC2CCCC2)c2[nH]c(-c3ccccc3)cc2c1	93
COCc1cc(NC2CCOCC2)c2[nH]c(-c3ccccc3)cc2c1	88
